assay: Therapeutic drug monitoring
Format: in vivo, human
assay-setup: both, human, plasma, oral, 400 mg/qd, Plasma concentration, OCT1 1386C > A (rs 622342) AA, n=24
Where a name gives a salt, the structure may show the parent alone.
attribute-measured: concentration at 22 h (ng/mL)

compound	attribute-measured	result-value
Cc1ccc(NC(=O)c2ccc(CN3CCN(C)CC3)cc2)cc1Nc1nccc(-c2cccnc2)n1 [IM, Imatinib mesylate]	concentration at 22 h	1580

###

assay: Therapeutic drug monitoring
Format: in vivo, human
assay-setup: both, human, plasma, oral, 400 mg/qd, Plasma concentration, OCT1 1795G > A (rs6935207) AG, n=13
Where a name gives a salt, the structure may show the parent alone.

compound	concentration at 22 h (ng/mL)
Cc1ccc(NC(=O)c2ccc(CN3CCN(C)CC3)cc2)cc1Nc1nccc(-c2cccnc2)n1 [IM, Imatinib mesylate]	1860
